Test system: Tox21 cell viability assays (different cell types)
test method notes: Global cytotoxicity: eighteen Tox21 cell viability assays
Assay type: cell-based
cond: percentage of 18 Tox21 viability assays with hitc=1
// boundary case: Active in global cytotoxicity assays (%) equal to 10% maps to not satisfied; strictly smaller maps to satisfied

INSERT INTO results (compound, classification) VALUES
  ('Cc1ccc2c(Cl)cc(Cl)c(O)c2n1 [5,7-Dichloro-8-hydroxy-2-methylquinoline]', 'not satisfied'),
  ('CCCCCOc1ccc(C2SC(=O)NC2=O)cc1OCC (centres unmarked) [Risarestat, reference compound]', 'not satisfied'),
  ('CCCc1c(OCCCCc2nnn[nH]2)ccc(C(C)=O)c1O [Tomelukast, reference compound]', 'satisfied'),
  ('CCCCCCCCCCCCn1cc[n+](C)c1.[I-] [1-Dodecyl-3-methylimidazolium iodide]', 'not satisfied');

Please examine the following record next.
Q) Please indicate whether the reported Active in global cytotoxicity assays (%) of c1cc(N(CC2CO2)CC2CO2)ccc1Cc1ccc(N(CC2CO2)CC2CO2)cc1 (centres unmarked) [4,4ʹ-Methylenebis(N,N-diglycidylaniline)] is strictly below 10%.
A) not satisfied
